Recorded values, source the supplement of paper PMC11061612.

System: NB14 (Neuroblastoma)
Experiment: combination Emax (second highest fraction inhibited in the dose matrix, 72 h); higher = more inhibition; extreme values may be limits of the assay
Below, each entry is listed alongside its reported combination Emax.
Simply state the number, no unit and no words.

## Input Recall the recorded combination Emax for C[C@@H](Nc1cc(F)cc(F)c1)c1cc(C(=O)N(C)C)cc2c(=O)cc(N3CCOCC3)oc12 [AZD8186] + C1CN(CCC1(C(=O)N[C@@H](CCO)C2=CC=C(C=C2)Cl)N)C3=NC=NC4=C3C=CN4 [AZD5363] (first compound max 10 µM, 7x7, partner max 10 µM) with NB14 (Neuroblastoma) and state it.
## Output 0.213

## Input Cc1c2c(nn1C)CSCc1cc(n(C)n1)CSc1cc(c3ccccc3c1)OCCCc1c(C(=O)O)n(C)c3c-2c(Cl)ccc13 [AZD5991] + CN(C)CCCOc1ccc(-c2ccc3ncc4c(c3c2)n(C2CCOCC2)c(=O)n4C)cn1 [AZD0156] (first compound max 1 µM, 7x7, partner max 1 µM) ?
## Output 0.771

## Input Please give the result for COc1nnc2ccc(N3CCC(c4ccc(OCCN5CCN(C)C(=O)[C@H]5C)cc4)CC3)nn12 [AZD5153] + Cc1c2c(nn1C)CSCc1cc(n(C)n1)CSc1cc(c3ccccc3c1)OCCCc1c(C(=O)O)n(C)c3c-2c(Cl)ccc13 [AZD5991] (first compound max 1 µM, 7x7, partner max 1 µM) too.
## Output 0.934

Now turn to the next compound.
## Input Provide the documented combination Emax with NB14 (Neuroblastoma) as the system for Cc1cc2ncnn2cc1Nc1ncc2c(n1)n(C1CCOCC1)c(=O)n2C [AZD7648] + CCN(CCO)CCCOc1ccc2c(Nc3cc(CC(=O)Nc4cccc(F)c4)[nH]n3)ncnc2c1 [AZD2811] (first compound max 10 µM, 7x7, partner max 1 µM)
## Output 0.837

###

Each record here notes measured combination Emax.
Tested on: OC-314 (Ovarian Carcinoma)
Test: combination Emax (second highest fraction inhibited in the dose matrix, 72 h); higher = more inhibition; extreme values may be limits of the assay

## Input Please look up its combination Emax: O=C(c1cc(Cc2n[nH]c(=O)c3ccccc23)ccc1F)N1CCN(C(=O)C2CC2)CC1 [Olaparib] + CC1(C)CCC(CN2CCN(c3ccc(C(=O)NS(=O)(=O)c4ccc(NCC5CCOCC5)c([N+](=O)[O-])c4)c(Oc4cnc5[nH]ccc5c4)c3)CC2)=C(c2ccc(Cl)cc2)C1 [Venetoclax] (first compound max 10 µM, 7x7, partner max 1 µM)
## Output 0.188

Let us move to another entry and its combination Emax.
## Input What does the record list as combination Emax for COc1cccc(OCCCN)c1-c1cc(Nc2cnc(C#N)cn2)n[nH]1 [Prexasertib] + CN(C)CCCOc1ccc(-c2ccc3ncc4c(c3c2)n(C2CCOCC2)c(=O)n4C)cn1 [AZD0156] (first compound max 1 µM, 7x7, partner max 1 µM) ?
## Output 0.962

###

Test system: NCI-H28 (Mesothelioma)
Assay: combination Emax (second highest fraction inhibited in the dose matrix, 72 h); higher = more inhibition; extreme values may be limits of the assay
readout: combination Emax
Just the number, please, no unit attached.

## Input I would be grateful if you could share the reported combination Emax for Cc1c2c(nn1C)CSCc1cc(n(C)n1)CSc1cc(c3ccccc3c1)OCCCc1c(C(=O)O)n(C)c3c-2c(Cl)ccc13 [AZD5991] + CS(=O)(=O)CCNCc1ccc(-c2ccc3ncnc(Nc4ccc(OCc5cccc(F)c5)c(Cl)c4)c3c2)o1 [Lapatinib] (first compound max 1 µM, 7x7, partner max 10 µM) .
## Output 0.337

###

System: K5 (Thyroid Gland Carcinoma)
Test: Bliss excess, mean over the matrix (fraction); higher = more synergy
readout: Bliss excess
Number, no unit, nothing else.

Answered cases to consult:
## Input Find Bliss excess (K5 (Thyroid Gland Carcinoma)) for the entry Cc1cc2ncnn2cc1Nc1ncc2c(n1)n(C1CCOCC1)c(=O)n2C [AZD7648] + CCN(CCO)CCCOc1ccc2c(Nc3cc(CC(=O)Nc4cccc(F)c4)[nH]n3)ncnc2c1 [AZD2811] (first compound max 10 µM, 7x7, partner max 1 µM)
## Output 0.0013

## Input And NC1(C(=O)N[C@@H](CCO)c2ccc(Cl)cc2)CCN(c2ncnc3[nH]ccc23)CC1 [Capivasertib] + Cn1cnc2c(F)c(Nc3ccc(Br)cc3Cl)c(C(=O)NOCCO)cc21 [Selumetinib] (first compound max 10 µM, 7x7, partner max 10 µM) ?
## Output 0.0944

## Input COc1nnc2ccc(N3CCC(c4ccc(OCCN5CCN(C)C(=O)[C@H]5C)cc4)CC3)nn12 [AZD5153] + Cn1cnc2c(F)c(Nc3ccc(Br)cc3Cl)c(C(=O)NOCCO)cc21 [Selumetinib] (first compound max 1 µM, 7x7, partner max 10 µM) ?
## Output -0.0937

## Input Request: Cn1cnc2c(F)c(Nc3ccc(Br)cc3Cl)c(C(=O)NOCCO)cc21 [Selumetinib] + C[C@@H]1COCCN1C2=NC(=NC(=C2)C3(CC3)[S@](=N)(=O)C)C4=C5C=CNC5=NC=C4 [AZD6738] (first compound max 10 µM, 7x7, partner max 10 µM)
## Output 0.045

## Input Also O=C(c1cc(Cc2n[nH]c(=O)c3ccccc23)ccc1F)N1CCN(C(=O)C2CC2)CC1 [Olaparib] + Cc1c2c(nn1C)CSCc1cc(n(C)n1)CSc1cc(c3ccccc3c1)OCCCc1c(C(=O)O)n(C)c3c-2c(Cl)ccc13 [AZD5991] (first compound max 10 µM, 7x7, partner max 1 µM) , if possible.
## Output -0.0563

Others:
## Input Provide value of Bliss excess for this record tested with K5 (Thyroid Gland Carcinoma): CN(C)CCCOc1ccc(-c2ccc3ncc4c(c3c2)n(C2CCOCC2)c(=O)n4C)cn1 [AZD0156] + C=CCn1c(=O)c2cnc(Nc3ccc(N4CCN(C)CC4)cc3)nc2n1-c1cccc(C(C)(C)O)n1 [AZD1775] (first compound max 1 µM, partner max 1 µM)
## Output -0.0003

## Input What do we get for CC1(C)CCC(CN2CCN(c3ccc(C(=O)NS(=O)(=O)c4ccc(NCC5CCOCC5)c([N+](=O)[O-])c4)c(Oc4cnc5[nH]ccc5c4)c3)CC2)=C(c2ccc(Cl)cc2)C1 [Venetoclax] + C=CCn1c(=O)c2cnc(Nc3ccc(N4CCN(C)CC4)cc3)nc2n1-c1cccc(C(C)(C)O)n1 [AZD1775] (first compound max 1 µM, partner max 1 µM) ?
## Output -0.0279

###

Reported Bliss excess values are given for each entry in this list.
System: MDA-MB-468 (Breast Carcinoma)
Assay: Bliss excess, mean over the matrix (fraction); higher = more synergy
# answer = number (no unit)

## Input Which Bliss excess reading was recorded for the compound COc1cccc2c1C(=O)c1c(O)c3c(c(O)c1C2=O)C[C@@](O)(C(=O)CO)C[C@@H]3O[C@H]1C[C@H](N)[C@H](O)[C@H](C)O1 [Doxorubicin] + Cc1cc2ncnn2cc1Nc1ncc2c(n1)n(C1CCOCC1)c(=O)n2C [AZD7648] (first compound max 1 µM, 7x7, partner max 10 µM) ?
## Output 0.0309

Further cases:
## Input Could you share which Bliss excess value was measured for CN(CCO)CC[C@H](CSc1ccccc1)Nc1ccc(S(=O)(=O)NC(=O)c2ccc(N3CCC([C@@H](O)c4ccccc4-c4ccc(Cl)cc4)CC3)cc2)cc1S(=O)(=O)C(F)(F)F [AZD4320] + C[C@@H]1COCCN1C2=NC(=NC(=C2)C3(CC3)[S@](=N)(=O)C)C4=C5C=CNC5=NC=C4 [AZD6738] (first compound max 1 µM, 7x7, partner max 10 µM) ?
## Output 0.0161

###

Tested on: NCI-H2461 (Mesothelioma)
Experiment: combination Emax (second highest fraction inhibited in the dose matrix, 72 h); higher = more inhibition; extreme values may be limits of the assay
readout: combination Emax
Respond using a number only.

## Input Consider the compound CS(=O)(=O)CCNCc1ccc(-c2ccc3ncnc(Nc4ccc(OCc5cccc(F)c5)c(Cl)c4)c3c2)o1 [Lapatinib] + C[C@@H](Oc1cc(-c2cnn(C3CCNCC3)c2)cnc1N)c1c(Cl)ccc(F)c1Cl [Crizotinib] (first compound max 10 µM, 7x7, partner max 10 µM) and give its measured combination Emax.
## Output 0.91

## Input Would you kindly repeat that for Cc1cc2ncnn2cc1Nc1ncc2c(n1)n(C1CCOCC1)c(=O)n2C [AZD7648] + CN(C)CCCOc1ccc(-c2ccc3ncc4c(c3c2)n(C2CCOCC2)c(=O)n4C)cn1 [AZD0156] (first compound max 10 µM, 7x7, partner max 1 µM) ?
## Output 0.448

## Input Thanks! And N#Cc1cnc(Nc2cc(NC[C@H]3CNCCO3)c(C(F)(F)F)cn2)cn1 [SRA737] + CCc1c2c(nc3ccc(O)cc13)-c1cc3c(c(=O)n1C2)COC(=O)[C@]3(O)CC [SN-38] (first compound max 10 µM, 7x7, partner max 0.3 µM) ?
## Output 0.638

// next entry
## Input // lookup combination Emax for CN(CCO)CC[C@H](CSc1ccccc1)Nc1ccc(S(=O)(=O)NC(=O)c2ccc(N3CCC([C@@H](O)c4ccccc4-c4ccc(Cl)cc4)CC3)cc2)cc1S(=O)(=O)C(F)(F)F [AZD4320] + CS(=O)(=O)CCNCc1ccc(-c2ccc3ncnc(Nc4ccc(OCc5cccc(F)c5)c(Cl)c4)c3c2)o1 [Lapatinib] (first compound max 1 µM, 7x7, partner max 10 µM)
## Output 0.512
